pKi: −log10 of the molar value.
// merged dataset of pKi values, system = Serine protease 1 (Bos taurus, UniProt P00760), multiple refs
Sequence (P00760 whole entry): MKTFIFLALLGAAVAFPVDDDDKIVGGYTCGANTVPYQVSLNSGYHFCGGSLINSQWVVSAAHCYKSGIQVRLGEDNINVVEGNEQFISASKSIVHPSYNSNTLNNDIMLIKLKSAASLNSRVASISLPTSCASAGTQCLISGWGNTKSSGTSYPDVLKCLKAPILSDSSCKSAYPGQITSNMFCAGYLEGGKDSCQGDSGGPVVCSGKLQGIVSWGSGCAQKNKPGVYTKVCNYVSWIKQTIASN
assay-metric: pKi

Recorded results for 4 molecules are shown here.
sample_smiles=CCN([C@H]1CCN(Cc2cccc(C(=N)N)c2)C1=O)S(=O)(=O)c1ccc2ccc(OC)cc2c1 experimental_system="Serine protease 1 (Bos taurus, UniProt P00760)" number=5.85
sample_smiles=N=C(N)c1cccc(C[C@H](NS(=O)(=O)c2ccc3ccccc3c2)C(=O)C(=O)O)c1 experimental_system="Serine protease 1 (Bos taurus, UniProt P00760)" number=3.93
sample_smiles=COC(=O)N[C@@H](C(=O)N1CCC[C@H]1C(=O)NCC#Cc1c[nH]cn1)C(C1CCCCC1)C1CCCCC1 experimental_system="Serine protease 1 (Bos taurus, UniProt P00760)" number=4.52
sample_smiles=Cc1c(F)c(Oc2cccc(C(=N)N)c2)nc(Oc2cc(C(=O)N(C)C)cc(C(=O)N(C)C)c2)c1F experimental_system="Serine protease 1 (Bos taurus, UniProt P00760)" number=5.80

P = CNC(=O)[C@H](Cc1cccc(C(=N)N)c1)NS(=O)(=O)c1c(C(C)C)cc(C(C)C)cc1C(C)C
Q = N=C(N)c1cccc(C[C@H](NS(=O)(=O)c2ccc3ccccc3c2)C(=O)N2CCC[C@H](C(=O)OCc3ccccc3)C2)c1
R = Cc1c(C)c(S(=O)(=O)N[C@@H](Cc2cccc(C(=N)N)c2)C(=O)N2CCC(C)CC2)c(C)c2c1OC(C)(C)CC2
input: Ascending by pKi, please: list the molecules accordingly. Returns: the labels listed in the requested order.
output: P, R, Q
(P: 4.58, R: 6.14, Q: 6.80)
